Data credit: PubChem BioAssay AID1794819

- targetEntity: UniProt:Q16348
- assayExplanation: SLC15A2 dipeptide substrate-evoked depolarization, dose response, membrane potential dye, HEK-293 overexpressing cells, pH 6.8/7.4 (AID 1794819)
- setupConditions: HEK-293 SLC15A2 OE, FLIPR membrane potential dye; as substrate, pH 7.4
Non-standard residues stand in square brackets, D forms with d. Residues, ends and D or L forms follow the SMILES beside them. Sar = CNCC(=O)O
measuredEndpoint: EC50

What EC50 value was documented for this molecule, CN(CC(=O)O)C(=O)CN (H-Gly-[Sar]-OH) ?
123 µM

* * *

- targetEntity: Solute carrier family 15 member 2 (Homo sapiens) (UniProt Q16348)
- Sequence (Q16348 whole entry, looked up): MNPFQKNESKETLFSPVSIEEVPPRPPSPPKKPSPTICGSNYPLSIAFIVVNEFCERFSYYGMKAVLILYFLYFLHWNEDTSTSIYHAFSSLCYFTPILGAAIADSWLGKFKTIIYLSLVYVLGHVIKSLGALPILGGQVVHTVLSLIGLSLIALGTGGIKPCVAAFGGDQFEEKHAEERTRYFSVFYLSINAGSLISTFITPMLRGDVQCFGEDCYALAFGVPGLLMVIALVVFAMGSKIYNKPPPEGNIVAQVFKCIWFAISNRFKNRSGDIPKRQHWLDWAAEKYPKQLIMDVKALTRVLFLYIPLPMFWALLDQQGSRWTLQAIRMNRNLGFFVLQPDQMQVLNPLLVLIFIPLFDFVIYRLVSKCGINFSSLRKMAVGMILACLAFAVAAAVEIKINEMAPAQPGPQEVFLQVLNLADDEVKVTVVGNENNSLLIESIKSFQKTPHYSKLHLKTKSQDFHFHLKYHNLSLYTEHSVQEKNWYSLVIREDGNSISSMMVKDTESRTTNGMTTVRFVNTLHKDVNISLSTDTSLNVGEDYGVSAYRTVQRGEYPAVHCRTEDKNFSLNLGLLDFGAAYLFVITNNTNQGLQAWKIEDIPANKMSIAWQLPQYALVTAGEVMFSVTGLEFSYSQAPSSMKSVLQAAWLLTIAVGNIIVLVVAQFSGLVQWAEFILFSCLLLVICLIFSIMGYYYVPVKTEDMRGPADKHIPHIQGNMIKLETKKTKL
- assayExplanation: SLC15A2 dipeptide substrate-evoked depolarization, dose response, membrane potential dye, HEK-293 overexpressing cells, pH 6.8/7.4 (AID 1794819)
- setupConditions: HEK-293 SLC15A2 OE, FLIPR membrane potential dye; as substrate, pH 6.8
Non-standard residues stand in square brackets, D forms with d. Residues, ends and D or L forms follow the SMILES beside them. Sar = CNCC(=O)O
I'd be grateful if you could share measured pEC50 for these entries.
Numbers only, as −log10 of the molar value.

[
  {
    "molecule": "NCCC(=O)N[C@@H](Cc1cnc[nH]1)C(=O)O",
    "pEC50": 4.55
  }
]

What pEC50 value was documented for this molecule, CN(CC(=O)O)C(=O)CN (H-Gly-[Sar]-OH) ?
4.41
